assay: chemical genetic growth profiling, strain panel (AID 1159580);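 note: tested at 20 µM; growth read once vehicle control cultures reached saturation at 30 °C; 1 = growth at the plate median or of vehicle wells; lower values mean less growth of the strain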; details: S. cerevisiae deletion strains, growth OD, locus YCL016C, strain dcc1, hits give low values
In all, about 5,500 compounds went through this assay and about 2,000 (36%) were called active. Roughly 18% stayed inconclusive and do not appear here. The list shows a part of the results.
measuredEndpoint: normalized growth
Keep the answer to the number alone.

// worked examples, normalized growth included
| compound | normalized growth |
| --- | --- |
| CCOc1ccc(C(=O)c2ccc(OC)c(O)c2O)cc1 | 0.973 |
| CC[C@H]1CN2CCc3cc(OC)c(OC)cc3C2C[C@@H]1CC1NCCc2cc(OC)c(OC)cc21 (some centres not stated) | 0.996 |
| CC(=O)NO | 0.937 |

Value of measured normalized growth for the entry CCOc1ccc(C(=O)c2ccc(O)c(O)c2O)cc1 : 0.919

Noted for COc1ccc(C(=O)c2ccccc2)c(O)c1O : its normalized growth reads 0.986

Data point: CCOc1ccc(NC(C)=O)cc1 ; normalized growth = 1.02

compound NC(=O)NO , normalized growth observed: 1.02

====

test: chemical genetic growth profiling, strain panel (AID 1159580); conditions: S. cerevisiae deletion strains, growth OD, strain wtn01
Hit rate of the full screen: of about 5,500 compounds, about 2,000 (36%) were called active. Roughly 18% stayed inconclusive and do not appear here. No stated cut-off is given here; in the data, active means normalized growth mostly below about 0.91 (no sharp cut-off); inconclusive means no clear call, values can overlap the other calls; inactive means mostly above about 0.92. This is one part of the list.
Write down one outcome, taken from 1 (yes) (active), 0 (no) (inactive)

| smi | classLabel |
| --- | --- |
| COc1ccc(C(=O)c2ccc(O)cc2)c(O)c1O | 0 (no) |
| COc1ccc(C(=O)c2ccccc2)c(O)c1O | 0 (no) |
| O=C(OC[C@H]1O[C@H](OC(=O)c2cc(O)c(O)c(OC(=O)c3cc(O)c(O)c(O)c3)c2)[C@H](OC(=O)c2cc(O)c(O)c(OC(=O)c3cc(O)c(O)c(O)c3)c2)[C@@H](OC(=O)c2cc(O)c(O)c(OC(=O)c3cc(O)c(O)c(O)c3)c2)[C@@H]1OC(=O)c1cc(O)c(O)c(OC(=O)c2cc(O)c(O)c(O)c2)c1)c1cc(O)c(O)c(OC(=O)c2cc(O)c(O)c(O)c2)c1 | 1 (yes) |

Name the outcome recorded for CCOc1ccc(C(=O)c2cc(O)c(OC)c(OC)c2O)cc1 in the assay.
0 (no)

# outcome recorded in this test, key = CCOc1ccc(C(=O)c2ccc(O)c(O)c2O)cc1
1 (yes)

Recorded test outcome, item NC(=O)NO
0 (no)

====

Reported normalized growth values are given for each entry in this list.
test: chemical genetic growth profiling, strain panel (AID 1159580); settings: S. cerevisiae deletion strains, growth OD, locus YNL207W, strain RIO2, hits give low values
Among all 5,500 compounds or so, about 2,000 (36%) were called active. Not shown: some 18% with an inconclusive outcome. This is one part of the list.

| molecule | normalized growth |
| --- | --- |
| N#C/C(=N/Nc1cccc(C(F)(F)F)c1)C(=O)c1csc(-c2cccnc2)n1 | 0.941 (inactive) |
| CSc1nnc(COc2ccc(C)c3c2CCC3)n1-c1ccccc1 | 0.979 (inactive) |
| CN1c2ccccc2C(C)(C)C12C=Cc1cc(O)ccc1O2 (stereo unspecified) | 0.974 (inactive) |
| CC(C)(C)c1ccc(C(=O)NNC(=S)Nc2ccc(Cl)cc2)cc1 | 0.971 (inactive) |
| S=C(Nc1ccc(Cl)cc1)Nc1ccc(Cl)cc1 | 0.893 (inactive) |

Now consider the entry below.
For record CS/C(Nc1cccc(C(F)(F)F)c1)=C(/C#N)S(=O)(=O)c1ccc(Cl)cc1 the listed normalized growth is 0.936 (inactive)

====

Recorded normalized growth for the following molecules
experiment: chemical genetic growth profiling, strain panel (AID 1159580);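 note: tested at 20 µM; growth read once vehicle control cultures reached saturation at 30 °C; 1 = growth at the plate median or of vehicle wells; lower values mean less growth of the strain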; conditions: S. cerevisiae deletion strains, growth OD, locus YJL129C, strain trk1, hits give low values
About 2,000 (36%) of roughly 5,500 compounds were called active. Another 18% or so got no clear call; they are omitted. Some of the results follow. *1 amine or outer side, *2 acyl side, *3 side chain or, on linkers, in order; H or OH if unused. Where a SMILES comes first, the peptide text is derived from it. Bridges are numbered along the chain shown (N, C = ends). [ ]: non-standard residue; d: D form. The star is where a group is joined. ξ: configuration not given here. ΔAla(E,3-NHCONH2) = NC(=O)N/C=C(/N)C(=O)O; X2 = NC1=NCCC(C(N[*:1])C(=O)[*:2])N1; ξβ3hOrn = NCCCC(N)CC(=O)*; Dap = NC[CH](N)C(=O)O
The answer should be written as a number, with no unit following it.

A selection of reference data follows.
| molecule | normalized growth |
| --- | --- |
| COc1cc(-c2oc3cc(O)ccc3c(=O)c2O)ccc1O | 0.911 |
| Cc1cc(C(C)(C)C)cc(C)c1CC1=NCCN1 | 1.02 |
| CCc1cccc2c3c([nH]c12)C(CC)(CC(=O)O)OCC3 (stereo unspecified) | 0.934 |
| CC(=O)OC[C@H]1O[C@@H](Oc2cc(OC(C)=O)c3c(=O)cc(-c4ccc(OC(C)=O)cc4)oc3c2)[C@H](OC(C)=O)[C@@H](OC(C)=O)[C@@H]1OC(C)=O | 0.984 |
| NCCCC(N)CC(=O)NCC1NC(=O)C(CO)NC(=O)C(N)CNC(=O)C(C2CCN=C(N)N2)NC(=O)/C(=C\NC(N)=O)NC1=O (stereo not drawn) (H-[Dap]S[Dap](ξβ3hOrn)[ΔAla(E,3-NHCONH2)][X2]; lactam 1-C; configuration not given here) | 1.01 |

According to the records, this molecule O=C(OC[C@H]1O[C@H](OC(=O)c2cc(O)c(O)c(OC(=O)c3cc(O)c(O)c(O)c3)c2)[C@H](OC(=O)c2cc(O)c(O)c(OC(=O)c3cc(O)c(O)c(O)c3)c2)[C@@H](OC(=O)c2cc(O)c(O)c(OC(=O)c3cc(O)c(O)c(O)c3)c2)[C@@H]1OC(=O)c1cc(O)c(O)c(OC(=O)c2cc(O)c(O)c(O)c2)c1)c1cc(O)c(O)c(OC(=O)c2cc(O)c(O)c(O)c2)c1 displays normalized growth of 0.872

Measured normalized growth, CN1CCN(CCC=C2c3ccccc3Sc3ccc(S(=O)(=O)N(C)C)cc32)CC1 : 1.03

Query CCCc1nc2c(C)cc(-c3nc4ccccc4n3C)cc2n1Cc1ccc(-c2ccccc2C(=O)O)cc1 yields normalized growth of 0.956

Measured normalized growth, O=C(CCc1ccc(O)cc1)c1c(O)cc(O)cc1O[C@@H]1O[C@H](CO)[C@@H](O)[C@H](O)[C@H]1O : 1.01

molecule COc1ccc2c(c1)[C@]13CCCC[C@H]1[C@H](C2)N(C)CC3 , normalized growth observed: 0.932

====

Below, each entry is listed alongside its reported normalized growth.
test: chemical genetic growth profiling, strain panel (AID 1159580);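 note: tested at 20 µM; growth read once vehicle control cultures reached saturation at 30 °C; 1 = growth at the plate median or of vehicle wells; lower values mean less growth of the strain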; details: S. cerevisiae deletion strains, growth OD, locus YNL322C, strain KRE1, hits give low values
In all, about 5,500 compounds went through this assay and about 2,000 (36%) were called active. About 18% were inconclusive and are not listed. Some of the results follow.
Output spec: single numeric token, no unit.

See these solved cases before continuing.
| compound | normalized growth |
| --- | --- |
| COc1cc([N+](=O)[O-])ccc1N1CCCC1 | 0.916 |
| NC[C@H]1O[C@H](O[C@H]2C(O[C@@H]3O[C@H](CO)[C@@H](O)[C@H]3O)[C@@H](O)[C@H](N)C[C@@H]2N)[C@H](N)[C@@H](O)[C@@H]1O (stereo not given in full) | 1 |
| CN[C@@H]1[C@@H](O[C@H]2O[C@H](CO)[C@@H](N)[C@H](O)[C@H]2O)O[C@H]2C[C@@H](N)[C@H](O[C@H]3[C@H](O)[C@@H](O)[C@H](N)C[C@@H]3N)O[C@@H]2[C@@H]1O | 1.01 |
| Cc1onc(-c2ccccc2Cl)c1C(=O)N[C@@H]1C(=O)N2[C@@H]1SC(C)(C)[C@@H]2C(=O)O | 1 |
| CN1CCN(CC(=O)N2c3ccccc3C(=O)Nc3cccnc32)CC1 | 1.01 |

Value of measured normalized growth for the entry CC1=CC(=O)C2=C(C)CC(O)C3C(C)C(=O)OC3C12 (stereo not given) : 1

The recorded normalized growth for entry CCC1(CC)C(=O)C=CNC1=O equals 0.999

// field: normalized growth; key: CCNc1nc(Cl)nc(NCC)n1 ; value = 0.996

Briefly, normalized growth measured for COP(=O)(OC)OC(Br)C(Cl)(Cl)Br (stereo not given) : 0.987

Query CN(C)/C=C1/C(=O)NN=C1CSc1ccccn1 yields normalized growth of 0.985

====

assay: chemical genetic growth profiling, strain panel (AID 1159580);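 note: tested at 20 µM; growth read once vehicle control cultures reached saturation at 30 °C; 1 = growth at the plate median or of vehicle wells; lower values mean less growth of the strain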; conditions: S. cerevisiae deletion strains, growth OD, locus YLL001W, strain dnm1
Screen size: about 5,500 compounds; about 2,000 (36%) were called active. Roughly 18% stayed inconclusive and do not appear here. Cut-off read from the data, not from the text of the source: active = normalized growth mostly below about 0.91 (no sharp cut-off); inconclusive = no clear call, values can overlap the other calls; inactive = mostly above about 0.92. The list shows a part of the results.
Please state which outcome applies, choosing from true (1) = active, false (0) = inactive

Previously resolved entries follow.
| molecule | classLabel |
| --- | --- |
| CCCc1nc2c(C)cc(-c3nc4ccccc4n3C)cc2n1Cc1ccc(-c2ccccc2C(=O)O)cc1 | false (0) |
| CC1=CC2C(C(C)C)CCC(C)(O)C2CC1 (configuration not stated) | false (0) |
| CN1C(=O)CCS(=O)(=O)C1c1ccc(Cl)cc1 (configuration not stated) | false (0) |
| OCc1c[nH]c2ccccc12 | false (0) |
| COc1cc2c(cc1OC)[C@@]13CCN4CC5=CCOC6CC(=O)N2C1[C@H]6[C@H]5C[C@H]43 (some centres not stated) | false (0) |
| CCC1(CC)C(=O)C=CNC1=O | false (0) |
| CCNc1nc(Cl)nc(NCC)n1 | false (0) |
| CCc1cccc2c3c([nH]c12)C(CC)(CC(=O)O)OCC3 (configuration not stated) | false (0) |

Just curious, what result did COC(=O)C[C@H]1C(C)(C)[C@@H](O)[C@@H]2CC3=C4C=C(OC)O[C@@H](c5ccoc5)[C@]4(C)CCC3[C@@]1(C)C2=O (some centres not stated) get here?
false (0)

What is the recorded call for this molecule in the test? CC(=O)Oc1cccc2c1C(=O)c1c(OC(C)=O)cc(C(=O)O)cc1C2=O
true (1)
